# System tested: recombinant α4β3δ GABAA receptors (Homo sapiens, UniProt P28472+P48169)
# Construct: expressed in transfected cells; host or cells: CHO cells (transient transfection, Lipofectamine)
# Sequence (P48169 36-554): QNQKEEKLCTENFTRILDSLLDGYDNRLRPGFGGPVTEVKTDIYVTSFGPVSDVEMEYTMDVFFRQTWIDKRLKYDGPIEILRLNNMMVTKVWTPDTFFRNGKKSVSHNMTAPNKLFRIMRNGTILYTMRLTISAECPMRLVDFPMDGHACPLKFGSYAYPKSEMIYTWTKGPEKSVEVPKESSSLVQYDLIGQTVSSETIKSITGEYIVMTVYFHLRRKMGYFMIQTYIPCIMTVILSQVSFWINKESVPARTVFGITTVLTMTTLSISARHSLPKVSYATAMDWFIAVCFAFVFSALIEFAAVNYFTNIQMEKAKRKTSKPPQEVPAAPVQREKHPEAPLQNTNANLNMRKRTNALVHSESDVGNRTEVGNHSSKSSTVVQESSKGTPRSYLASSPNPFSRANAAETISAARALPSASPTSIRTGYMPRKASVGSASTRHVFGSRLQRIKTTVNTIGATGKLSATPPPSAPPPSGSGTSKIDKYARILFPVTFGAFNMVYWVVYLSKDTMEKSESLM
# Sequence (P28472 26-473): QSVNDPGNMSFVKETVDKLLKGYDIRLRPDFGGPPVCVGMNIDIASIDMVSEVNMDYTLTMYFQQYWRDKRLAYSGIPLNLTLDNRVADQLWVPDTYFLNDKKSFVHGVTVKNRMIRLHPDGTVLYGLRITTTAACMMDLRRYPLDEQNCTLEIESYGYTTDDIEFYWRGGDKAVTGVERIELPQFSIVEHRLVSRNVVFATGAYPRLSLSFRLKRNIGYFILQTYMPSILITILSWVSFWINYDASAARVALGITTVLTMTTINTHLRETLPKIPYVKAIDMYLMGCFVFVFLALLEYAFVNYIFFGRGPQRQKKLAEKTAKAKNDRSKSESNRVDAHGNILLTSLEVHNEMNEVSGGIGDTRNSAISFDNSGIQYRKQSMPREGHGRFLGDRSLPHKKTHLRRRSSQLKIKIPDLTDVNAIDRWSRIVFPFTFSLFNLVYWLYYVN
# Sequence (O14764 17-452 partner limits assumed): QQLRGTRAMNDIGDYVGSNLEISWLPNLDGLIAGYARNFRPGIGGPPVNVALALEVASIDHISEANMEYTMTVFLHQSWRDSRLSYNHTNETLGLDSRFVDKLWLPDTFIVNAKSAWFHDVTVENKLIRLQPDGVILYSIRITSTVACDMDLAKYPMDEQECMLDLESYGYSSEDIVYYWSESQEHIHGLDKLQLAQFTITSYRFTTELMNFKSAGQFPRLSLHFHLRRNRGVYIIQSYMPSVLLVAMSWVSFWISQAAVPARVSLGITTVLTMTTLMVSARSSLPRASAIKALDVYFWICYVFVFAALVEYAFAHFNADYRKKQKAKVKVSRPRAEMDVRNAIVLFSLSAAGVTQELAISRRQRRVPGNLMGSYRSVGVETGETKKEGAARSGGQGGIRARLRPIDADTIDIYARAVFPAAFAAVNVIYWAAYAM
# Experiment: Patch clamp electrophysiology, manual patch, CHO cells
# Type: cell-based
# Conditions: 10 μM test article, GABA EC20 = 2 μM, read-out: GABA (α4β3δ) Manual patch in CHO, % efficacy at 10 μM
Measured metric: Emax at 10 µM

Supply measured Emax at 10 µM of `COC[C@@]1(O)CC[C@H]2[C@@H](CC[C@@H]3[C@@H]2CC[C@]2(C)[C@@H](C(=O)Cn4nnnc4C)CC[C@@H]32)C1` in your reply.
> 500%

Note down Emax at 10 µM recorded for `COC[C@@]1(O)CC[C@H]2[C@@H](CC[C@@H]3[C@@H]2CC[C@]2(C)[C@@H](C(=O)Cn4ccnn4)CC[C@@H]32)C1`
> 500%

In one line, give reported Emax at 10 µM of the entry `C[C@]12CC[C@H]3[C@@H](CC[C@@H]4C[C@@](O)(C(F)F)CC[C@@H]43)[C@@H]1CC[C@@H]2C(=O)Cn1cnnn1` .
100 to 500%

Consider the compound `Cc1nnnn1CC(=O)[C@H]1CC[C@H]2[C@@H]3CC[C@@H]4C[C@](C)(O)CC[C@@H]4[C@H]3CC[C@]12C` and give its recorded Emax at 10 µM.
> 500%

Give Emax at 10 µM for the following compound: `COC[C@@]1(O)CC[C@H]2[C@@H](CC[C@@H]3[C@@H]2CC[C@]2(C)[C@@H](C(=O)Cn4cnnn4)CC[C@@H]32)C1`
> 500%

For the compound `C[C@]12CC[C@H]3[C@@H](CC[C@@H]4C[C@@](O)(C(F)F)CC[C@@H]43)[C@@H]1CC[C@@H]2C(=O)Cn1ccnn1` , give its measured Emax at 10 µM value.
> 500%

Origin of the recorded values: patent US20200165291A1
